B1: tRNA (parent)
chain: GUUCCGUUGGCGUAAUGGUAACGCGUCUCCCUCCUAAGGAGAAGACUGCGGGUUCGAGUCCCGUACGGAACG

variants of: B1; assay: yeast fitness, log relative to wild type (ln ratio); higher = fitter; tRNA-Arg(CCU), competitive growth, 37 C, 1 M NaCl
Param threshold (-0.2) applies to yeast fitness (ln); output fulfilled when value >= threshold, not fulfilled when value < threshold.

INPUT: Form field: yeast fitness (ln) at least -0.2? Entry: G1A U2G C27U A43C C66U C71U
OUTPUT: not fulfilled

INPUT: Does the variant C66U A70U have recorded yeast fitness (ln) that is -0.2 or more?
OUTPUT: fulfilled

INPUT: Evaluate U2C G6U A43C C66A A70U C71U : yeast fitness (ln) at minimum -0.2?
OUTPUT: not fulfilled

INPUT: Confirm if yeast fitness (ln) reported for the variant C27U A43C C66U A69G A70G C71U is -0.2 or above.
OUTPUT: not fulfilled
